Entries and their measured LD50 follow.
assay: Acute toxicity; details: mouse, in vivo, ip

{"columns": ["COMPOUND", "ENDPOINT LABEL", "TEST RESULT"],
 "data": [
  ["COC1C=CC=CC=CCC(OC(=O)[C@@H](C)NC(=O)C2CCCCC2)C(C)C(O)C(C)=CCCc2cc(O)cc(c2O)NC(=O)C1 (stereo partly shown)", "LD50", "85.5 mg/kg"],
  ["COC1C=CC=CC=CCC(O)C(C)C(O)C(C)=CCCc2cc(O)cc(c2O)NC(=O)C1 (stereo not shown)", "LD50", "~280 mg/kg"],
  ["COC1C=CC=CC=CCC(O)C(C)C(O)C(C)=CCCC2=CC(=O)C=C(NC(=O)C1)C2=O (stereo not shown)", "LD50", "~250 mg/kg"]
]}

// next item, LD50 requested
Entry COC1C=CC=CC=CCC(OC(=O)[C@@H](C)NC(=O)C2CCCCC2)C(C)C(O)C(C)=CCCC2=CC(=O)C=C(NC(=O)C1)C2=O (stereo partly shown) : reported LD50 = ?
55.9 mg/kg

###

assay: Solubility in solvents; details: water
ENDPOINT LABEL: Solubility in water

{"columns": ["COMPOUND", "ENDPOINT LABEL", "TEST RESULT"],
 "data": [
  ["COC1C=CC=CC=CCC(OC(=O)[C@@H](C)NC(=O)C2CCCCC2)C(C)C(O)C(C)=CCCC2=CC(=O)C=C(NC(=O)C1)C2=O (stereo partly shown) [T-23-I substance]", "Solubility in water", "Insoluble in water"],
  ["COC1C=CC=CC=CCC(OC(=O)[C@@H](C)NC(=O)C2CCCCC2)C(C)C(O)C(C)=CCCc2cc(O)cc(c2O)NC(=O)C1 (stereo partly shown) [T-23-II substance]", "Solubility in water", "Insoluble in water"],
  ["COC1C=CC=CC=CCC(O)C(C)C(O)C(C)=CCCC2=CC(=O)C=C(NC(=O)C1)C2=O (stereo not shown) [T-23-III substance]", "Solubility in water", "Insoluble"],
  ["COC1C=CC=CC=CCC(O)C(C)C(O)C(C)=CCCc2cc(O)cc(c2O)NC(=O)C1 (stereo not shown) [T-23-IV substance]", "Solubility in water", "Insoluble"]
]}
